- Test system: Klebsiella pneumoniae ATCC 700603
- procedure_summary: Serum MIC, broth micro-dilution
- Type: cell-based
- condition_context: Klebsiella pneumoniae, ATCC700603; 50% v/v mouse serum in Mueller Hinton II cation adjusted Broth, 35° C., 22 hours; Table 4; read-out: K pneumoniae 700603 Serum MIC
Let's look at some compounds and their measured MIC.
Reply with just the number (in µM).

Solved entries:
Cc1nc(-c2ccc(C3(C)CC3)cc2)ncc1C(=O)N[C@@H](CCN)C(=O)N(C)[C@@H]1C(=O)N[C@@H](C)C(=O)N[C@H](C(=O)O)Cc2ccc(OC[C@@H](O)CN)c(c2)-c2cc1cc(OC[C@@H](O)CN)c2O [Example 73]; 0.25
Cc1nc(-c2ccc(C(C)(C)C)cc2)nc(CN)c1C(=O)N[C@@H](CNS(N)(=O)=O)C(=O)N(C)[C@@H]1C(=O)N[C@@H](C)C(=O)N[C@H](C(=O)O)Cc2ccc(OC[C@H](O)CN)c(c2)-c2cc1cc(OC[C@H](O)CN)c2O [Example 72]; 0.31
Cc1nc(-c2ccc(CC3CC3)cc2)nc(N)c1C(=O)N[C@@H](CNS(N)(=O)=O)C(=O)N(C)[C@@H]1C(=O)N[C@@H](C)C(=O)N[C@H](C(=O)O)Cc2ccc(OC[C@H](O)CN)c(c2)-c2cc1cc(OC[C@H](O)CN)c2O [Example 34]; 0.75

IN: Request the reported MIC associated with C[C@@H]1NC(=O)[C@@H](N(C)C(=O)[C@H](CNS(N)(=O)=O)NC(=O)c2c(N)cc(-c3ccc(C(C)(C)C)cc3O)nc2Cl)c2cc(OC[C@H](O)CN)c(O)c(c2)-c2cc(ccc2OC[C@H](O)CN)C[C@@H](C(=O)O)NC1=O [Example 61]
OUT: 0.5

* * *

Reported values of MIC for individual entries
- System: Pseudomonas aeruginosa PA01
- procedure_summary: Serum MIC, broth micro-dilution
- Format: cell-based
- condition_context: Pseudomonas aeruginosa, PA01; 50% v/v mouse serum in Mueller Hinton II cation adjusted Broth, 35° C., 22 hours; Table 4; read-out: P. aeruginosa 01 Serum MIC
Entry rule: numbers only, all in µM.

Answered cases to consult:
CCC(C)(C)c1ccc(-c2nc(C)c(C(=O)N[C@@H](CNS(N)(=O)=O)C(=O)N(C)[C@@H]3C(=O)N[C@@H](C)C(=O)N[C@H](C(=O)O)Cc4ccc(OC[C@H](O)CN)c(c4)-c4cc3cc(OC[C@H](O)CN)c4O)c(N)n2)c(F)c1; 8
C[C@@H]1NC(=O)[C@@H](N(C)C(=O)[C@H](CCN)NC(=O)c2c(N)nc(-c3ccc(C(C)(C)C)cc3)nc2C(F)F)c2cc(OC[C@H](O)CN)c(O)c(c2)-c2cc(ccc2OC[C@H](O)CN)C[C@@H](C(=O)O)NC1=O; 16
Cc1nc(-c2ccc(C(C)(C)C)cc2)nc(N)c1C(=O)N[C@@H](CNS(N)(=O)=O)C(=O)N(C)[C@@H]1C(=O)N[C@@H](C)C(=O)N[C@H](C(=O)O)Cc2ccc(OC[C@@H](O)CN)c(c2)-c2cc1cc(OC[C@@H](O)CN)c2O; 4
Cc1nc(-c2ccc3c(c2)CCC3(C)C)nc(N)c1C(=O)N[C@@H](CNS(N)(=O)=O)C(=O)N(C)[C@@H]1C(=O)N[C@@H](C)C(=O)N[C@H](C(=O)O)Cc2ccc(OC[C@H](O)CN)c(c2)-c2cc1cc(OC[C@H](O)CN)c2O; 6

Now look at this entry.
IN: Returns the measured MIC for the input molecule. Input: `Cc1nc(-c2ccc(C(C)(C)C)cc2F)nc(N)c1C(=O)N[C@@H](CNS(N)(=O)=O)C(=O)N(C)[C@@H]1C(=O)N[C@@H](C)C(=O)N[C@H](C(=O)O)Cc2ccc(OC[C@H](O)CN)c(c2)-c2cc1cc(OC[C@H](O)CN)c2O`
OUT: 6

* * *

Entries and their log10 of MIC values follow.
- System: Klebsiella pneumoniae ATCC 700603
- procedure_summary: Serum MIC, broth micro-dilution
- Assay type: cell-based
- condition_context: Klebsiella pneumoniae, ATCC700603; 50% v/v mouse serum in Mueller Hinton II cation adjusted Broth, 35° C., 22 hours; Table 4; read-out: K pneumoniae 700603 Serum MIC
Parameter value (number): base-10 log of MIC in µM.

Some compounds with recorded log10 of MIC:
Cc1nc(-c2ccc(C(C)(C)C)cc2)ncc1C(=O)N[C@@H](CCN)C(=O)N(C)[C@@H]1C(=O)N[C@@H](C)C(=O)N[C@H](C(=O)O)Cc2ccc(OC[C@H](O)CN)c(c2)-c2cc1cc(OC[C@H](O)CN)c2O [Example 23]; -0.80
Cc1nc(-c2ccc(C3(C)CC3)cc2)nc(N)c1C(=O)N[C@@H](CCN)C(=O)N(C)[C@@H]1C(=O)N[C@@H](C)C(=O)N[C@H](C(=O)O)Cc2ccc(OC[C@H](O)CN)c(c2)-c2cc1cc(OC[C@H](O)CN)c2O [Example 21]; -0.60
CCCCc1ccc(-c2nc(C)c(C(=O)N[C@@H](CNS(N)(=O)=O)C(=O)N(C)[C@@H]3C(=O)N[C@@H](C)C(=O)N[C@H](C(=O)O)Cc4ccc(OC[C@H](O)CN)c(c4)-c4cc3cc(OC[C@H](O)CN)c4O)c(N)n2)cc1 [Example 36]; 0.00
Cc1nc(-c2ccc(C(C)(C)C)cc2)ncc1C(=O)N[C@@H](CNS(N)(=O)=O)C(=O)N(C)[C@@H]1C(=O)N[C@@H](C)C(=O)N[C@H](C(=O)O)Cc2ccc(OC[C@H](O)CN)c(c2)-c2cc1cc(OC[C@H](O)CN)c2O [Example 8]; -0.30
COc1c(OC[C@H](O)CN)cc2cc1-c1cc(ccc1OC[C@H](O)CN)C[C@@H](C(=O)O)NC(=O)[C@H](C)NC(=O)[C@H]2N(C)C(=O)[C@H](CCN)NC(=O)c1cnc(-c2ccc(C3(C)CC3)cc2)nc1C [Example 74]; -0.30

IN: # query: log10 of MIC of entry C[C@@H]1NC(=O)[C@@H](N(C)C(=O)[C@H](CNS(N)(=O)=O)NC(=O)c2c(Cl)cc(-c3ccc(C(C)(C)C)cc3)nc2N)c2cc(OC[C@H](O)CN)c(O)c(c2)-c2cc(ccc2OC[C@H](O)CN)C[C@@H](C(=O)O)NC1=O [Example 40]
OUT: -0.30

IN: How about this compound: Cc1nc(-c2ccc(C(F)(F)C(C)C)cc2)ncc1C(=O)N[C@@H](CNS(N)(=O)=O)C(=O)N(C)[C@@H]1C(=O)N[C@@H](C)C(=O)N[C@H](C(=O)O)Cc2ccc(OC[C@H](O)CN)c(c2)-c2cc1cc(OC[C@H](O)CN)c2O [Example 10]
OUT: 0.00

* * *

- System: Pseudomonas aeruginosa PA01
- procedure_summary: Serum MIC, broth micro-dilution
- Assay type: cell-based
- condition_context: Pseudomonas aeruginosa, PA01, 22 h, read-out: P. aeruginosa 01 Serum MIC
As shown below, each of these molecules has a reported MIC value.
The reply should read as a number followed by its unit.

Example results:
Cc1nc(-c2ccc(OCCC(C)(C)C)cc2)nc(N)c1C(=O)N[C@@H](CCN)C(=O)N(C)[C@@H]1C(=O)N[C@@H](C)C(=O)N[C@H](C(=O)O)Cc2ccc(OC[C@H](O)CN)c(c2)-c2cc1cc(OC[C@H](O)CN)c2O; 4 µM
Cc1nc(-c2ccc(C(C)(C)C)cc2)nc(C)c1C(=O)N[C@@H](CCN)C(=O)N(C)[C@@H]1C(=O)N[C@@H](C)C(=O)N[C@H](C(=O)O)Cc2ccc(OC[C@H](O)CN)c(c2)-c2cc1cc(OC[C@H](O)CN)c2O; 8 µM

Here's the next entry for you.
IN: Param readout= MIC; system= Pseudomonas aeruginosa PA01; entry= `Cc1nc(-c2ccc(OCCC(C)(C)C)cc2)ncc1C(=O)N[C@@H](CNS(N)(=O)=O)C(=O)N(C)[C@@H]1C(=O)N[C@@H](C)C(=O)N[C@H](C(=O)O)Cc2ccc(OC[C@H](O)CN)c(c2)-c2cc1cc(OC[C@H](O)CN)c2O` ; returns value.
OUT: 6 µM

* * *

- Test system: Klebsiella pneumoniae ATCC 700603
- procedure_summary: Serum MIC, broth micro-dilution
- Type: cell-based
- condition_context: Klebsiella pneumoniae, ATCC700603; 50% v/v mouse serum in Mueller Hinton II cation adjusted Broth, 35° C., 22 hours; Table 4; read-out: K pneumoniae 700603 Serum MIC
Each entry below carries its recorded MIC.
Express your answer in µM, writing the number without its unit.

// worked examples, MIC included
C[C@@H]1NC(=O)[C@@H](N(C)C(=O)[C@H](CCN)NC(=O)c2c(N)cc(-c3ccc(C(C)(C)C)cc3)nc2Cl)c2cc(OC[C@H](O)CN)c(O)c(c2)-c2cc(ccc2OC[C@H](O)CN)C[C@@H](C(=O)O)NC1=O; 0.13
C[C@@H]1NC(=O)[C@@H](N(C)C(=O)[C@H](CCN)NC(=O)c2cnn(-c3ccc(OC4CCCCC4)cc3)c(=O)c2)c2cc(OC[C@H](O)CN)c(O)c(c2)-c2cc(ccc2OC[C@H](O)CN)C[C@@H](C(=O)O)NC1=O; 0.75
Cc1nc(-c2ccc(C(C)(C)C)cc2)nc(N)c1C(=O)N[C@@H](CNS(N)(=O)=O)C(=O)N(C)[C@@H]1C(=O)N[C@@H](C)C(=O)N[C@H](C(=O)O)Cc2ccc(OC[C@H](O)CN)c(c2)-c2cc1cc(OC[C@H](O)CN)c2O; 0.5
Cc1nc(-c2ccc(C(C)(C)C)cc2)ncc1C(=O)N[C@@H](CN)C(=O)N(C)[C@@H]1C(=O)N[C@@H](C)C(=O)N[C@H](C(=O)O)Cc2ccc(OC[C@H](O)CN)c(c2)-c2cc1cc(OC[C@H](O)CN)c2O; 0.75
Cc1nc(-c2ccc(C3(C)CC3)cc2)ncc1C(=O)N[C@@H](CCN)C(=O)N(C)[C@@H]1C(=O)N[C@@H](C)C(=O)N[C@H](C(=O)O)Cc2ccc(OC[C@H](O)CN)c(c2)-c2cc1cc(OC[C@H](O)CN)c2O; 0.17

IN: Fill blank: measured MIC of the molecule `C[C@@H]1NC(=O)[C@@H](N(C)C(=O)[C@H](CNS(N)(=O)=O)NC(=O)c2cnc(-c3ccc(C(C)(C)C)cc3)nc2)c2cc(OC[C@H](O)CN)c(O)c(c2)-c2cc(ccc2OC[C@H](O)CN)C[C@@H](C(=O)O)NC1=O` is ____.
OUT: 0.5

IN: Moving on to the next molecule: `Cc1nc(-c2ccc(C3(C)CC3)cc2)ncc1C(=O)N[C@@H](CNS(N)(=O)=O)C(=O)N(C)[C@@H]1C(=O)N[C@@H](C)C(=O)N[C@H](C(=O)O)Cc2ccc(OC[C@H](O)CN)c(c2)-c2cc1cc(OC[C@H](O)CN)c2O`
OUT: 0.88

IN: Another molecule: `Cc1nc(-c2ccc(C(C)(C)C)c(F)c2)nc(N)c1C(=O)N[C@@H](CNS(N)(=O)=O)C(=O)N(C)[C@@H]1C(=O)N[C@@H](C)C(=O)N[C@H](C(=O)O)Cc2ccc(OC[C@H](O)CN)c(c2)-c2cc1cc(OC[C@H](O)CN)c2O`
OUT: 0.75

IN: How about `Cc1nc(-c2ccc(CC(C)(C)C)cc2)nc(N)c1C(=O)N[C@@H](CNS(N)(=O)=O)C(=O)N(C)[C@@H]1C(=O)N[C@@H](C)C(=O)N[C@H](C(=O)O)Cc2ccc(OC[C@H](O)CN)c(c2)-c2cc1cc(OC[C@H](O)CN)c2O` ?
OUT: 0.75

IN: Same question for `Cc1nc(-c2ccc(C(C)(C)C)cc2)nc(N)c1C(=O)N[C@@H](CNS(N)(=O)=O)C(=O)N(C)[C@@H]1C(=O)N[C@@H](C)C(=O)N[C@H](C(=O)O)Cc2ccc(OC[C@@H](O)CN)c(c2)-c2cc1cc(OC[C@@H](O)CN)c2O` please.
OUT: 0.5
